# system name: Protein deacetylase HDAC6 (Homo sapiens)
# conditions used: at 10 µM
In all, about 5,600 compounds went through this assay and about 390 (7%) showed an effect of 50% or more. For the sample, strong results were picked, then their nearest neighbours and some compounds at random.
I'd appreciate it if you could supply inhibition values for the items below.
Answers are plain numbers, in %.

{"substance": "FLUPENTIXOL, CHEMBL6066864", "inhibition (%)": 88.9}
{"substance": "TEPRENONE, CHEMBL5314356", "inhibition (%)": 27.9}
{"substance": "AUROTHIOGLUCOSE, CHEMBL1697725", "inhibition (%)": 8.56}
{"substance": "BLEOMYCIN SULFATE, CHEMBL6067493", "inhibition (%)": 23.1}
{"substance": "EUK 134, CHEMBL5308416", "inhibition (%)": 33.1}

Batch: inhibition for all items listed.
1. BISMUTH SUBCITRATE POTASSIUM, CHEMBL1201186
2. CHLOROPHYLLIDECOPPER COMPLEX SODIUM SALT, CHEMBL5308389
3. NKP-1339, CHEMBL5308480
4. CYANOCOBALAMIN, CHEMBL2110563

[16.3, 8.12, 34.9, -2.71]
